System: MES-SA/Dx5 cells
Assay: PrestoBlue viability assay, MES-SA/Dx5 cells (MDR, P-gp positive)
Conditions: Homo sapiens, MES-SA/Dx5, 72 h, read-out: IC50 / μM MES-SA/Dx5, absence of TQ; 72 h incubation
property name: log10(IC50) (log10 of the value in µM)
Log scale reminder: IC50 in µM, then log10 taken.

Some entries whose results are on file:
{"molecule": "Oc1c(C(c2ccccc2)N2CCOCC2)ccc2cccnc12 (stereo not drawn)", "study target": "MES-SA/Dx5 cells", "log10(IC50)": 1.07}
{"molecule": "CCN1CCN(C(c2cccnc2)c2ccc3cccnc3c2O)CC1 (stereo not drawn)", "study target": "MES-SA/Dx5 cells", "log10(IC50)": 1.01}

Q) Which log10(IC50) is reported for this molecule? Oc1c(CN2CCc3ccccc3C2)cc(Cl)c2cccnc12
A) -0.57

Q) For CN1CCN(C(c2ccncc2)c2ccc3cccnc3c2O)CC1 (stereo not drawn) then?
A) 1.04

Q) For CCCOCc1cc(CN2CCN(c3ccccc3)CC2)c(O)c2ncccc12 then?
A) -0.62
